measurement.description: Efflux ratio of apparent permeability across pig LLC-PK1 cells
Type: ADME, cell-based, Sus scrofa
readout.label: efflux ratio

>>> df
                               query_smiles  recorded_value
0  COc1ccccc1C(=O)NC(=O)Nc1ccc(-c2ccccc2)c(C(C)C)c1               1
1  COc1ccccc1C(=O)NC(=O)Nc1ccc(-c2ccccn2)c(C(F)(F)F)c1             1.1
2  COc1ccccc1C(=O)NC(=S)Nc1ccc(N2CCCCC2)c(Cl)c1               1
3  COc1ccccc1C(=O)NC(=O)Nc1ccc(-c2nccs2)c(C(F)(F)F)c1             1.4
4  COc1ccccc1C(=O)NC(=O)Nc1ccc(C(C)C)c(C(F)(F)F)c1               1
